Attribution: paper PMC11053681

system: Vero cells; test: Cytotoxicity assay on Vero cells (resazurin); type: cell-based, African green monkey; conditions: 24 h treatment

{"columns": ["COMPOUND", "CC50"],
 "data": [
  ["Cc1ccc(S(=O)(=O)NNC(Nc2ccc(F)cc2)=[S][Ag+][S]=C(NNS(=O)(=O)c2ccc(C)cc2)Nc2ccc(F)cc2)cc1.O=[N+]([O-])[O-] [Ag3, [Ag(HL3^FPh)2]NO3]", "> 500 µM"],
  ["Cc1ccc(S(=O)(=O)NNC(NC2CCCCC2)=[S][Ag+][S]=C(NNS(=O)(=O)c2ccc(C)cc2)NC2CCCCC2)cc1.O=[N+]([O-])[O-] [Ag1, [Ag(HL1^Ch)2]NO3]", "7.4 µM"],
  ["Cc1ccc(S(=O)(=O)NNC(Nc2ccc(F)cc2)=[S][Au+][S]=C(NNS(=O)(=O)c2ccc(C)cc2)Nc2ccc(F)cc2)cc1.[Cl-] [Au3, [Au(HL3^FPh)2]Cl]", "28.8 µM"],
  ["Cc1ccc(S(=O)(=O)NNC(Nc2ccc([N+](=O)[O-])cc2)=[S][Au+][S]=C(NNS(=O)(=O)c2ccc(C)cc2)Nc2ccc([N+](=O)[O-])cc2)cc1.[Cl-] [Au5, [Au(HL5^NO2Ph)2]Cl]", "58.6 µM"],
  ["Cc1ccc(S(=O)(=O)NNC(Nc2ccc([N+](=O)[O-])cc2)=[S][Ag+][S]=C(NNS(=O)(=O)c2ccc(C)cc2)Nc2ccc([N+](=O)[O-])cc2)cc1.O=[N+]([O-])[O-] [Ag5, [Ag(HL5^NO2Ph)2]NO3]", "493 µM"],
  ["Cc1ccc(S(=O)(=O)NNC(NC2CCCCC2)=[S][Au+][S]=C(NNS(=O)(=O)c2ccc(C)cc2)NC2CCCCC2)cc1.[Cl-] [Au1, [Au(HL1^Ch)2]Cl]", "19.9 µM"],
  ["Cc1ccc(S(=O)(=O)NNC(Nc2ccc(Cl)cc2)=[S][Ag+][S]=C(NNS(=O)(=O)c2ccc(C)cc2)Nc2ccc(Cl)cc2)cc1.O=[N+]([O-])[O-] [Ag4, [Ag(HL4^ClPh)2]NO3]", "> 500 µM"],
  ["Cc1ccc(S(=O)(=O)NNC(Nc2ccc(Cl)cc2)=[S][Au+][S]=C(NNS(=O)(=O)c2ccc(C)cc2)Nc2ccc(Cl)cc2)cc1.[Cl-] [Au4, [Au(HL4^ClPh)2]Cl]", "32 µM"],
  ["C=CCNC(NNS(=O)(=O)c1ccc(C)cc1)=[S][Ag+][S]=C(NCC=C)NNS(=O)(=O)c1ccc(C)cc1.O=[N+]([O-])[O-] [Ag6, [Ag(HL6^Al)2]NO3]", "> 500 µM"],
  ["C=CCNC(NNS(=O)(=O)c1ccc(C)cc1)=[S][Au+][S]=C(NCC=C)NNS(=O)(=O)c1ccc(C)cc1.[Cl-] [Au6, [Au(HL6^Al)2]Cl]", "77.5 µM"],
  ["Cc1ccc(S(=O)(=O)NNC(Nc2ccccc2)=[S][Ag+][S]=C(NNS(=O)(=O)c2ccc(C)cc2)Nc2ccccc2)cc1.O=[N+]([O-])[O-] [Ag2, [Ag(HL2^Ph)2]NO3]", "92.1 µM"],
  ["Cc1ccc(S(=O)(=O)NNC(Nc2ccccc2)=[S][Au+][S]=C(NNS(=O)(=O)c2ccc(C)cc2)Nc2ccccc2)cc1.[Cl-] [Au2, [Au(HL2^Ph)2]Cl]", "296 µM"]
]}
